Property: trans-isomer fraction after 520 nm irradiation (%)
# number only, unit % dropped from output

Exam item: Look up trans-isomer fraction after 520 nm irradiation for this molecule: CC[C@H](C)[C@H](NC(=O)Cn1nc(C)c(/N=N/c2ccccc2)c1C)C(=O)N[C@@H](CO)C(=O)N[C@@H](C)C(=O)O
Marked response: 87

====

Property: cis-isomer fraction after 365 nm irradiation

Exam item: // lookup cis-isomer fraction after 365 nm irradiation for CC[C@H](C)[C@H](NC(=O)Cn1nc(C)c(/N=N\c2ccccc2)c1C)C(=O)N[C@@H](CO)C(=O)N[C@@H](C)C(=O)O
Marked response: > 98%
